Provenance of the data: paper PMC5540273

Field: %Inh. Provide a value for each of the molecules that follow.
System: CLK2
Conditions used: concentration: 1 μM, replicates: in singlicate; n = 1;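 further: KINOMEscan kinase panel screen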
State just the number; it will be interpreted in %.

Query (molecule): `COc1cccc(C2=C(Nc3ccc(Cl)c(C(=O)O)c3)C(=O)NC2=O)c1` ; field requested: %Inh
6

And the next one, `Cn1cc(-c2ccc3c(c2)CCN3C(=O)Cc2cccc(Cl)c2)c2c(N)ncnc21` ?
0

Queued: `CN1CCN(CCCNc2nccc(-c3c(-c4ccc(F)cc4)nn4cc(C(F)(F)F)ccc34)n2)CC1`
15

Subsequent entry: O=C(NC1CCN(c2ccnc(Nc3ccc(F)cc3)n2)C1)c1cc2ccccc2s1 (stereo not shown)
0

----------
Test system: NEK7
Conditions used: concentration: 1 μM, replicates: in singlicate; n = 1
Measured metric: %Inh (%)
Note: unit % is implicit; provide only the numeric part.

If you can, please state the reported %Inh value of Fc1ccc(-c2ncn(C3CCNCC3)c2-c2ccnc(Oc3ccc(-c4ccccc4)cc3)n2)cc1 [SB-245391] .
0

Also O=C(NC1CCN(c2ccnc(Nc3ccc(F)cc3)n2)C1)c1cc2ccccc2s1 (centres unmarked) [GSK1379716] , if possible.
0

Do the same for Nc1ncnc2c1nc(-c1ccccc1)n2-c1ccccc1 [SKF-97293] please
6

Would you kindly repeat that for CN(C)S(=O)(=O)c1cc(-c2ccc3nccc(-c4cccc(S(N)(=O)=O)c4)c3c2)cnc1N [GSK1669921] ?
31

For CCS(=O)(=O)c1ccc(OC)c(Nc2nccc(-c3c(-c4cccc(NC(=O)c5c(F)cccc5F)c4)nn4ncccc34)n2)c1 [GSK326180] then?
0

Now try CC(C)c1nc(-c2cccc(NS(=O)(=O)c3c(F)cccc3F)c2F)c(-c2ccnc(Nc3ccc(N4CCOCC4)nc3)n2)s1 [GSK2008607] .
92.9

What do you have for Cl.Cl.NCC(C(=O)Nc1cc(Br)c(-c2ccnc3[nH]ccc23)s1)c1ccccc1 (centres unmarked) [GSK1269851] ?
10

Now the same for CN(c1ccc(NC(=O)Nc2cc(C(F)(F)F)ccc2F)cc1)c1ccnc(Nc2ccc(S(N)(=O)=O)cc2)n1 [GW809893]
0

----------
Give measured %Inh for each item. Keep answers brief.
System: WEE2
Conditions used: concentration: 1 μM, replicates: in singlicate; n = 1

# lookup: %Inh of Cc1ccc(C(=O)Nc2ccc(Nc3ccnc4cc(-c5nccs5)ccc34)cc2O)cc1.Cl [GW494702]
0%

How about Cl.NC(=O)c1cccc(Nc2nccc(Nc3ccc(Oc4c(Cl)cccc4Cl)c(Cl)c3)n2)c1 [GW659009] ?
0%

Again, but for CN(C)S(=O)(=O)c1cc(-c2ccc3nccc(-c4cccc(S(N)(=O)=O)c4)c3c2)cnc1N [GSK1669921]
17%

Query Cn1cc(-c2ccc3c(c2)CCN3C(=O)Cc2cccc(F)c2)c2c(N)ncnc21 [GSK2603358] next
0%

// repeat for CNC(=O)c1ccccc1Nc1nc(Nc2ccc(N3CCOCC3)cc2)ncc1Cl.Cl [GSK1576028] and report
100%

Then c1ccc(Oc2ccc(Nc3ccnc4cc(-c5ccc(CNCCN6CCOCC6)o5)ccc34)cc2)nc1 [GW567145] ?
0%

Same read-out for Cl.c1ccc(-c2ccc3c(Nc4ccc5[nH]ccc5c4)ccnc3c2)nc1 [GW440138] ?
6%

Now the compound COc1cccc(C2=C(Nc3ccc(Cl)c(C(=O)O)c3)C(=O)NC2=O)c1 [SB-390769]
0%

----------
Test system: PRKCQ
Conditions used: concentration: 1 μM, replicates: in singlicate; n = 1
Measured metric: %Inh (%)
# unit: % | format: bare number

GET /values?readout=%Inh&item= Cl.Cl.NCC(C(=O)Nc1cc(Br)c(-c2ccnc3[nH]ccc23)s1)c1ccccc1 (stereo not drawn)
73

And `O=C(Nc1cccc(-c2nn3ccccc3c2-c2ccnc(Nc3cccc(C(F)(F)F)c3)n2)c1)c1c(F)cccc1F` ?
20

Now this one: `COCCOCCOc1cc2ncc3c4ccc(C#N)cc4[nH]c3c2cc1OC`
35

How about Cc1ccc(C)c(NC(=O)NC2CCN(c3ccnc(Nc4ccc(F)cc4)n3)C2)c1 (stereo not drawn) ?
0

Same again, this time with `Cc1cccc(Nc2nc(N[C@H]3CCNC3)ncc2C(N)=O)c1.Cl`
41

Next compound up: `Nc1ncc(-c2ccc3nccc(-c4ccncc4)c3c2)cc1S(=O)(=O)N1CCOCC1`
0

Another compound to check: `C[C@@H](Oc1cc(-n2cnc3cc(-c4ccnc(NCCS(C)(=O)=O)c4)ccc32)sc1C(N)=O)c1ccccc1Cl`
31

Next record, please: `CNC(=O)c1ccccc1Nc1nc(Nc2ccc(N3CCOCC3)cc2)ncc1Cl.Cl`
84

Also need `c1ccc(-c2n[nH]cc2Nc2ccnc3ccccc23)nc1` , thanks.
0

Query `COc1ccc(-c2coc3ccc(-c4nnc(SCc5ccc(OC)c(C(F)(F)F)c5)o4)cc23)cc1` next
0

Would you mind doing `Cc1ccc(C(=O)N2CC[C@@H](O)C2)cc1-n1c(C)cc(OCc2ccc(F)cc2F)c(Br)c1=O` as well?
0

# repeat for `COc1ccc(CNC(=O)NC2CCN(c3ccnc(Nc4ccc(F)cc4)n3)CC2)cc1`
0

Next up: `Cc1ccc(S(=O)(=O)Nc2ccc(Nc3nccc(Nc4cccc5[nH]ncc45)n3)cc2)cc1`
0

Check `O=C(Nc1n[nH]c2nc(-c3ccc(O)cc3)ccc12)C1CC1` too.
16

And `Cc1occc1-c1ncc(OC[C@@H](N)Cc2c[nH]c3ccccc23)cc1-c1ccc2[nH]nc(C)c2c1.O=C(O)C(F)(F)F` ?
97.7

// query: `CC(C)c1nc(-c2cccc(NS(=O)(=O)c3c(F)cccc3F)c2F)c(-c2ccnc(Nc3ccc(N4CCOCC4)nc3)n2)s1`
18

// repeat for `Cl.c1ccc(-c2ccc3c(Nc4ccc5[nH]ccc5c4)ccnc3c2)nc1` and report
0

# iterate: `Cn1cc(-c2ccc3c(c2)CCN3C(=O)Cc2cccc(F)c2)c2c(N)ncnc21`
0

Same thing, different compound: `CN(C)Cc1ccc(-c2ccc3c(Nc4ccc(Oc5ccccn5)cc4)ccnc3c2)o1`
0

How about this compound: `CCc1ccc(-c2ccc3c(c2)-c2c(cnn2C)S(=O)(=O)N3C)cc1`
23

Param item: `O=C(Nc1cccc(-c2nn3ccccc3c2-c2ccnc(Nc3cccc(F)c3)n2)c1)c1c(F)ccc(F)c1Cl`
38

Next compound up: `O=C(Nc1n[nH]c2cc(-c3ccoc3)ccc12)C1CC1`
0

How about this compound: `CC(C)(C)c1ccc2nccc(Nc3cccc(O)c3)c2c1`
0

Now give it for `CCCCc1nn2ncccc2c1-c1ccnc(Nc2ccc(N3CCN(C)CC3)cc2)n1` too.
0

Ok, now `O=C(Nc1cccc(Oc2ccc3nc(NC(=O)C4CC4)cn3n2)c1)c1ccccc1C(F)(F)F`
0

Same for `FC(F)(F)c1ccc(/C=C/c2cncnc2Nc2ccc3[nH]c(Cc4ccccc4)nc3c2)cc1`
0

One more compound: `COc1ccc(Nc2nccc(NCCNC(=O)c3cc4ccccc4s3)n2)cc1`
9

Moving on to `Cc1cccc(NC(=O)Nc2ccc(Oc3ncnc4ccn(C)c34)cc2)c1`
0

Same again, this time with `c1ccc(-c2cnc3nccnn23)cc1`
0

Now try `Nc1ncnc2c1nc(-c1ccccc1)n2-c1ccccc1` .
0

Moving on to the next compound: `Nc1n[nH]c2cnc(-c3ccccc3)cc12`
45

And the next one, `COc1cc(Nc2ncc3c(C)nc(-c4cc5ccccc5[nH]4)n3n2)cc(OC)c1OC` ?
0

Likewise for `CCn1c(-c2nonc2N)nc2c(C#CC(C)(C)O)ncc(OCCCCN)c21.O=C(O)C(F)(F)F.O=C(O)C(F)(F)F` ?
86

Follow-up entry: `CC(=O)N1CCN(c2ccc(Nc3nccc(-c4sc(C(C)C)nc4-c4cccc(NS(=O)(=O)c5cccc(Cl)c5)c4)n3)cn2)CC1`
13

For `Cn1cc(-c2[nH]c3cc(NC(=O)[C@H](N)C4CCCCC4)cc4c3c2C=NNC4=O)cn1` then?
78

Another compound to look at: `Nc1ncc(-c2cccnc2)c2scc(-c3ccc4c(c3)CCN4C(=O)Cc3ccccc3)c12`
14

----------
Exercise: for every item that follows, state its recorded %Inh.
System: CASK
Conditions used: concentration: 1 μM, replicates: in singlicate; n = 1
// units = %; emit number, no label

Look at this molecule and give its reported %Inh. Cl.Cl.NCC(NC(=O)c1cc(-c2ccccc2)c(-c2ccnc3[nH]ccc23)s1)c1ccccc1 (centres unmarked) [GSK1321561]
13

Again, but for `CC(=O)Nc1nc2cnc(Nc3cc(NC(=O)c4cccc(C5(C#N)CC5)c4Cl)ccc3C)nc2s1`
0

Again, but for COc1ccc(Nc2nccc(NCCNC(=O)c3cc4ccccc4s3)n2)cc1 [GSK1379896]
5

Entry to check: CC(C)(C)c1ccc2nccc(Nc3cccc(O)c3)c2c1 [GW856795]
0

Cn1cc(-c2ccc3c(c2)CCN3C(=O)Cc2cccc(F)c2)c2c(N)ncnc21 [GSK2603358] , same question.
17

Moving on to CCS(=O)(=O)c1ccc(OC)c(Nc2nccc(-c3c(-c4cccc(NC(=O)c5c(F)cccc5F)c4)nn4ncccc34)n2)c1 [GSK326180]
16

# repeat for O=c1[nH]cc(-c2ccc(N3CCOCC3)cc2)c2sc(-c3cn[nH]c3)cc12 [GSK2276055]
15

// next record `CCc1ccc(-c2ccc3c(c2)-c2c(cnn2C)S(=O)(=O)N3C)cc1`
3
